Sourced from patent US6930185B2

Each entry below carries its recorded melting point.

Some solved entries appear below for comparison.
>>> reading("O=C(Nc1ccc2nc(CN3CCCC3)ccc2c1)N1CCC(c2ccc(F)cc2)CC1")
"206 to 207 °C"
>>> reading("CC(C)N(Cc1ccc2cc(NC(=O)N3CCC(c4ccc(Cl)cc4)CC3)ccc2n1)C(C)C")
"201 to 203 °C"
>>> reading("COc1ccc(-c2ccc(C(=O)Nc3ccc4cc(CN5C(C)(C)CCCC5(C)C)ccc4c3)cc2)cc1")
"212 to 214 °C"
>>> reading("COc1ccc(-c2ccc(C(=O)Nc3ccc4nc(CN(C(C)C)C(C)C)ccc4c3)cc2)cc1")
"223 to 225 °C"

// query Please look up its melting point: Cc1ccc(-c2ccc(C(=O)Nc3ccc4nc(CN(C(C)C)C(C)C)ccc4c3)cc2)cc1
// result 225 to 227 °C

----------
Each entry below carries its recorded melting point.

>>> reading("O=C(Nc1ccc2nc(CN3CCCC3)ccc2c1)N1CCC(c2ccc(Cl)cc2)CC1")
"205 °C (dec.)"
>>> reading("CN(C)Cc1ccc2cc(NC(=O)c3ccc(-c4ccc(F)cc4)cc3)ccc2n1")
"205 to 208 °C"
>>> reading("CC(C)N(Cc1ccc2cc(NC(=O)c3ccc(-c4ccccc4)cc3)ccc2n1)C(C)C")
"208 to 209 °C"

Proceed to the following item.
// query Please look up its melting point: O=C(Oc1ccc2cc(CN3CCCC3)ccc2c1)N1CCC(c2ccc(Cl)cc2)CC1
// result 121 to 123 °C

----------
readout label: melting point

Some solved entries appear below for comparison.
>>> reading("CC(C)(C)OC(=O)[C@@H]1CCCN1Cc1ccc2cc(NC(=O)c3ccc(-c4ccc(Cl)cc4)cc3)ccc2n1 [Example 118]")
"163 to 166 °C"
>>> reading("Cc1ccc(-c2ccc(C(=O)Nc3ccc4nc(CN5CCCCC5)ccc4c3)cc2)cc1 [Example 55]")
"198 to 200 °C"
>>> reading("O=C(Nc1ccc2nc(CN3CCCC3)ccc2c1)c1ccc(-c2ccc(Cl)cc2)nc1 [Example 44]")
"225 to 227 °C"
>>> reading("O=C(Nc1ccc2cc(CN3CCCC3)ccc2c1)N1CCC(c2ccc(F)cc2)CC1 [Example 99]")
"209 to 211 °C"
>>> reading("O=C(Nc1ccc2nc(CN3CCCC3)ccc2c1)N1CCC(c2ccccc2)CC1 [Example 39]")
"187 to 189 °C"

// query Please look up its melting point: O=C(Nc1ccc2nc(CN3CCCCC3)ccc2c1)c1ccc(-c2ccccc2)cc1 [Example 54]
// result 186 to 188 °C

// query What do we get for O=C(Nc1ccc2nc(CN3CCOCC3)ccc2c1)c1ccc(-c2ccc(F)cc2)cc1 [Example 13] ?
// result 211 to 212 °C

// query What do we get for O=C(Nc1ccc2nc(CN3CCCC3)ccc2c1)c1ccc(-c2ccc(F)cc2)nc1 [Example 45] ?
// result 210 °C
